STUDY SYSTEM: Eukaryotic translation initiation factor 4E (Homo sapiens, UniProt P06730)
Sequence (P06730 whole entry): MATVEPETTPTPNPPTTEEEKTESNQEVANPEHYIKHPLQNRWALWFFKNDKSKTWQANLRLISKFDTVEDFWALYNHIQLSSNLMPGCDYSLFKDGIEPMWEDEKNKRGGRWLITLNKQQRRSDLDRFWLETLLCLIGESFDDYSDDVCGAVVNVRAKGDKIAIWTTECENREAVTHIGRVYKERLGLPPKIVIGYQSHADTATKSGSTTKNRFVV
PROCEDURE SUMMARY: Inhibitory concentration against 7-methyl-GTP binding to eukaryotic translation initiation factor 4E
QUANTITY MEASURED: IC50

| COMPOUND | IC50 |
| --- | --- |
| CNc1nc2c(ncn2[C@@H]2O[C@H](CO)C(O)[C@H]2O)c(=O)[nH]1 (single isomer, unassigned) | > 400 µM |
| C[n+]1cn([C@@H]2O[C@H](CO)C(O)[C@H]2O)c2nc(N)[nH]c(=O)c21 (single isomer, unassigned) | > 400 µM |
| C[n+]1cn([C@@H]2O[C@H](CO)[C@@H](O)[C@H]2O)c2nc(N)nc([S-])c21 | > 400 µM |

Read the next record carefully.
Request: What does the record list as IC50 for Nc1nc2c(ncn2[C@@H]2O[C@H](CO[PH](=O)O)C(O)[C@H]2O)c(=O)[nH]1 (single isomer, unassigned) ?
Result: 130 µM
